molecular target: Prostaglandin G/H synthase 1 (Homo sapiens); experiment: In vitro inhibitory activity against recombinant human Prostaglandin G/H synthase 1
Sequence (P23219 whole entry): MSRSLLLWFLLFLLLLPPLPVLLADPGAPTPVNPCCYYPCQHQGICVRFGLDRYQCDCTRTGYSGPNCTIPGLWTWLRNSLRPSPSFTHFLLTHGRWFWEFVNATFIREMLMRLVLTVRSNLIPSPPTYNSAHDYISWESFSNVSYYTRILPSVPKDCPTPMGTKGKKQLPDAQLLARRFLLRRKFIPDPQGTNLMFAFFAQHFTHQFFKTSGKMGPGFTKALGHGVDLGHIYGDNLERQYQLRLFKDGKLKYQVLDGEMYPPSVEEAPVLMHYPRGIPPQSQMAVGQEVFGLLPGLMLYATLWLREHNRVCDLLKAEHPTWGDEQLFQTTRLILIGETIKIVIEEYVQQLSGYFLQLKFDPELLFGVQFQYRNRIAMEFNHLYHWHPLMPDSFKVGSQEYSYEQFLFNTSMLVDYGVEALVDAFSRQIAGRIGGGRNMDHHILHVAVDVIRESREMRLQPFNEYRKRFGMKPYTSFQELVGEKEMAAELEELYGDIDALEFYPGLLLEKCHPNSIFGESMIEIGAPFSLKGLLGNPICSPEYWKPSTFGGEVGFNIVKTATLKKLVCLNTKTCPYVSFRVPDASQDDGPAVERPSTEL
result_type: pIC50
// field semantics: pIC50 = negative decimal log of concentration (mol/L)

// worked examples, pIC50 included
Exam item: Query: pIC50; subject: CSc1ccc(C2=C3c4cc(C)ccc4CCC3OC2=O)cc1 (stereo unspecified)
Marked response: 7.21

Exam item: Quick one: pIC50 of CSc1ccc(C2=C3c4cc(C)ccc4CCC3(O)OC2=O)cc1 (stereo unspecified) ?
Marked response: 4.88

Exam item: # get_value(readout='pIC50', item= CSc1ccc(C2=C3c4ccccc4CCC3OC2=O)cc1 (stereo unspecified) )
Marked response: 7.28

Next compound, please.
Exam item: Given the compound CSc1ccc(C2=C3c4ccccc4CCC3(O)OC2=O)cc1 (stereo unspecified) , what is its reported pIC50?
Marked response: 4.78
